assay_system: ZIKV NS2B-NS3pro (Zika virus, UniProt A0A024B7W1, C1582S/C1645S/R1467A/R1531G)
procedure_summary: ZIKV NS2B-NS3pro inhibitory assay with fluorogenic substrate Bz-Nle-Lys-Lys-Arg-AMC
Assay type: biochemical
conditions_used: compound 25 µM (close to IC50); CHAPS 1 mM; enzyme 0.2 nM
Parameter threshold = 40%. Response is T when % ZIKV NS2B/NS3pro Inhibition [Enzyme] = 0.2 nM meets or exceeds it, else F.

# count of solved cases: 2
Hello, I need to know if Cc1cc(C(=O)c2ccccc2NS(=O)(=O)c2ccc(F)cc2)nn1-c1ccccc1 has measured % ZIKV NS2B/NS3pro Inhibition [Enzyme] = 0.2 nM not below 40%. Thanks!
T

Hello, I need to know if O=C(Nc1nc2ccccc2[nH]1)c1ccccc1NS(=O)(=O)c1ccc(Cl)cc1 has measured % ZIKV NS2B/NS3pro Inhibition [Enzyme] = 0.2 nM not below 40%. Thanks!
T

Further cases:
Hello, I need to know if O=C(Nc1nc2cnccc2[nH]1)c1ccccc1NS(=O)(=O)c1ccc(Cl)cc1 has measured % ZIKV NS2B/NS3pro Inhibition [Enzyme] = 0.2 nM not below 40%. Thanks!
T

Hello, I need to know if O=C(Nc1nc2cccnc2[nH]1)c1ccccc1NS(=O)(=O)c1ccc(Cl)cc1 has measured % ZIKV NS2B/NS3pro Inhibition [Enzyme] = 0.2 nM not below 40%. Thanks!
T

Hello, I need to know if O=C(Nc1nc2cccnc2[nH]1)c1ccccc1NS(=O)(=O)c1ccc(F)cc1 has measured % ZIKV NS2B/NS3pro Inhibition [Enzyme] = 0.2 nM not below 40%. Thanks!
F

Hello, I need to know if Cc1ccc(S(=O)(=O)Nc2ccccc2C(=O)Nc2nc3ccccc3[nH]2)cc1 has measured % ZIKV NS2B/NS3pro Inhibition [Enzyme] = 0.2 nM not below 40%. Thanks!
T
